# Tested on: T1, human LGR7/RXFP1 receptor (Homo sapiens, UniProt Q9HBX9)
# T1 construct: cloned as 2271 base pair long DNA fragment; expressed in transfected cells; host or cells: CHO K1 (ATCC CCL-61) with CRE-luciferase reporter; receptor in pcDNA3.1(-)
# T1 sequence (Q9HBX9 1-757): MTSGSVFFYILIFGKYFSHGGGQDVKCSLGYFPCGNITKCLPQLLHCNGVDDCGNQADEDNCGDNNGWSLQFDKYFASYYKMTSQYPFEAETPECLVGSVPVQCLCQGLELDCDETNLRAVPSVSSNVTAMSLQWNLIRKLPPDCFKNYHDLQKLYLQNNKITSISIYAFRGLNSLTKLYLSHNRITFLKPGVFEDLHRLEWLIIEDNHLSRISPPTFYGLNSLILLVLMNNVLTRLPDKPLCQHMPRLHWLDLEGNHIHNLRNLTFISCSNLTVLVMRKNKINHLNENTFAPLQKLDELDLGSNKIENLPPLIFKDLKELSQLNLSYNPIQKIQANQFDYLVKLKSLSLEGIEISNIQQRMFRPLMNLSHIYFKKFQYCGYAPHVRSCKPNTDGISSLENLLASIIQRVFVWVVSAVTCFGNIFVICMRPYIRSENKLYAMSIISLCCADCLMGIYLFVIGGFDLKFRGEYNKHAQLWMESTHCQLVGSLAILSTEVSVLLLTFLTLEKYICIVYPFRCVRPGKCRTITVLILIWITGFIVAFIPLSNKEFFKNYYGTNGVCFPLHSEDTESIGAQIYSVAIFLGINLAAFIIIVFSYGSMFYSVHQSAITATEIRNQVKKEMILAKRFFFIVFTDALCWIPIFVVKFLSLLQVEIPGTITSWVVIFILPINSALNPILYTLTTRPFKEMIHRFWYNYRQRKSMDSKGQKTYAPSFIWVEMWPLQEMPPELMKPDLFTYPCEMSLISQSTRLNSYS
# Procedure text: Activity testing: CRE-luciferase reporter in CHO-CRE-LGR7 cell line
# Assay type: cell-based
# Experimental setup: Table 1, scR constructs, luciferase after 6 hours, examples of three to five independent experiments
Assay metric: EC50 (M)

| Molecule | EC50 (M) |
| --- | --- |
| scR2: single chain human Relaxin 2 A-L-B, linker GlyGlyGlySerGly; Myc, hemagglutinin and 6 Histidine tags; SEQ ID NO: 2 (protein) EQKLISEEDLQLYSALANKCCHVGCTKRSLARFCGGGSGSWMEEVIKLCGRELVRAQIAICGMSTWSYPYDVPDYAHHHHHH | not detectable |
| scR20: B chain of human Relaxin 3-linker SEQ ID NO: 139-A chain of human Relaxin 2; Myc tag; SEQ ID NO: 156 (protein, ends and bridges not checked) EQKLISEEDLRAAPYGVRLCGREFIRAVIFTCGGSRWGGGSGGGSGQLYSALANKCCHVGCTKRSLARFC | not detectable |
| scR1: single chain human Relaxin 2 A-L-B, linker GlyGlyGly; Myc, hemagglutinin and 6 Histidine tags; SEQ ID NO: 1 (protein) EQKLISEEDLQLYSALANKCCHVGCTKRSLARFCGGGSWMEEVIKLCGRELVRAQIAICGMSTWSYPYDVPDYAHHHHHH | not detectable |
| scR16: human Relaxin 2 B chain-linker GlyGlyGlySerGlyGlyGlySerGly-A chain; Myc tag; SEQ ID NO: 152 (protein) EQKLISEEDLSWMEEVIKLCGRELVRAQIAICGMSTWSGGGSGGGSGQLYSALANKCCHVGCTKRSLARFC | not detectable |

Look up EC50 (M) for the entries below, preserving their order.
1. scR18: B chain of human Relaxin 2-linker SEQ ID NO: 139-A chain of human Relaxin 3; Myc tag; SEQ ID NO: 154 (protein, relaxin fusion polypeptide) EQKLISEEDLSWMEEVIKLCGRELVRAQIAICGMSTWSGGGSGGGSGDVLAGLSSSCCKWGCSKSEISSLC
2. scR6: single chain human Relaxin 2 A-L-B, fifteen amino acid linker SEQ ID NO: 173; Myc, hemagglutinin, 6 Histidine tags; SEQ ID NO: 6 (protein) EQKLISEEDLQLYSALANKCCHVGCTKRSLARFCGGGSGGGSGGGSGGGSWMEEVIKLCGRELVRAQIAICGMSTWSYPYDVPDYAHHHHHH
3. scR19: A chain of human Relaxin 2-linker SEQ ID NO: 139-B chain of human Relaxin 3; Myc tag; SEQ ID NO: 155 (protein, ends and bridges not checked) EQKLISEEDLQLYSALANKCCHVGCTKRSLARFCGGGSGGGSGRAAPYGVRLCGREFIRAVIFTCGGSRW

Reply text:
1. not detectable
2. not detectable
3. active (EC50 n.d.)

Inquiry: Would you kindly share the measured EC50 (M) for scR13: single chain human Relaxin 2 A-L-B, linker LysArgSerLeuSerArgLysLysArg; non-purified; SEQ ID NO: 13 (protein, ends and bridges not checked) QLYSALANKCCHVGCTKRSLARFCKRSLSRKKRSWMEEVIKLCGRELVRAQIAICGMSTWS ?
Reply text: active (EC50 n.d.)
